Each record here notes measured IC50.
Tested on: Staphylococcus aureus MW2 delta-mecA (mecA-)
PROTOCOL TEXT: IC50 (growth, competition assay)
PARTICULARS: fluorescent label: DsRed; cefoxitin: subinhibitory
Counter-ions that a name gives are not always drawn.
ASSAY METRIC: IC50 (µM)

INSERT INTO assay_data (compound, assay_metric, unit_descriptor, readout_qualifier, quantitative_result) VALUES
  ('OCCN1CCN(CC/C=C2/c3ccccc3Sc3ccc(C(F)(F)F)cc32)CC1 [cis-(Z)-Flupenthixol dihydrochloride]', 'IC50', 'µM', '=', 12.9),
  ('Oc1c(I)cc(I)c2cccnc12', 'IC50', 'µM', '<', 9.85),
  ('C[C@@H]1CN(c2c(F)c(F)c3c(=O)c(C(=O)O)cn(C4CC4)c3c2F)C[C@H](C)N1', 'IC50', 'µM', '=', 17.8),
  ('CC1(C)S[C@@H]2[C@H](NC(=O)[C@H](N)c3ccc(O)cc3)C(=O)N2[C@H]1C(=O)O [Amoxicillin sodium (Amox)]', 'IC50', 'µM', '<', 9.85),
  ('COc1ccc(COc2ccc(Cc3cnc(N)nc3N)cc2OC)cc1', 'IC50', 'µM', '<', 9.85),
  ('C[C@H](CCC(=O)O)[C@H]1CC[C@H]2[C@@H]3[C@H](O)C[C@@H]4C[C@H](O)CC[C@]4(C)[C@H]3CC[C@]12C', 'IC50', 'µM', '=', 14.8),
  ('Cc1cc2c(C(C)C)c(O)c(O)c(C=O)c2c(O)c1-c1c(C)cc2c(C(C)C)c(O)c(O)c(C=O)c2c1O [Gossypol]', 'IC50', 'µM', '<', 9.85);

###

Test system: Staphylococcus aureus MW2 (mecA+)
PROTOCOL TEXT: IC50 (growth, competition assay)
PARTICULARS: fluorescent label: DsRed; cefoxitin: subinhibitory
pIC50: −log10 of the molar value.
molecules and their reported pIC50
ASSAY METRIC: pIC50

INSERT INTO results (molecule, readout_qualifier, quantitative_result) VALUES
  ('CC[C@H]1OC(=O)[C@H](C)[C@@H](O[C@H]2C[C@@](C)(OC)[C@@H](O)[C@H](C)O2)[C@H](C)[C@@H](O[C@@H]2O[C@H](C)C[C@H](N(C)C)[C@H]2O)[C@](C)(O)C[C@@H](C)CN(C)[C@H](C)[C@@H](O)[C@]1(C)O [ZITHROMAX]', '>', 5.01),
  ('Cc1sc2c(c1C)C(c1ccc(Cl)cc1)=N[C@@H](CC(=O)OC(C)(C)C)c1nnc(C)n1-2 [(+)-JQ1]', '=', 4.01),
  ('O=c1[nH]c(=O)n([C@H]2C[C@H](O)[C@@H](CO)O2)cc1C(F)(F)F', '=', 4.23),
  ('OC(CNCC(O)C1CCc2cc(F)ccc2O1)C1CCc2cc(F)ccc2O1 (configuration not stated)', '=', 3.97),
  ('COC(=O)Nc1ccc(-c2nc(N3CCOCC3)c3cnn(C4CCN(Cc5cccnc5)CC4)c3n2)cc1', '=', 4.30),
  ('C=CCc1ccc(O)c(-c2cc(CC=C)ccc2O)c1', '=', 4.40),
  ('O=C(Nc1cccc(C(F)(F)F)c1)Nc1cc(S(=O)(=O)NC2CC2)ccc1-c1ccsc1', '=', 4.47);

###

System: Staphylococcus aureus MW2 delta-mecA (mecA-)
PROTOCOL TEXT: IC50 (growth, competition assay)
PARTICULARS: fluorescent label: DsRed; cefoxitin: subinhibitory
ASSAY METRIC: IC50

INSERT INTO measurements (compound, assay_metric, result) VALUES
  ('O=c1cc(O)cc(/C=C/c2ccc(O)c(O)c2)o1 [Hispidin]', 'IC50', '50.9 µM'),
  ('C/C(=C\C(=O)OCCCCCCCCC(=O)O)C[C@@H]1OC[C@H](C[C@@H]2O[C@H]2[C@@H](C)[C@H](C)O)[C@@H](O)[C@H]1O [BACTROBAN]', 'IC50', '< 9.85 µM'),
  ('CCN1CCN(C(=O)N[C@@H](C(=O)N[C@@H]2C(=O)N3C(C(=O)O)=C(CSc4nnnn4C)CS[C@H]23)c2ccc(O)cc2)C(=O)C1=O [Cefoperazone (Cefobid)]', 'IC50', '< 0.498 µM'),
  ('O=S1(=O)N(CCN2CC=C(c3c[nH]c4cc(F)ccc34)CC2)c2cccc3c2N1CCC3 [LY-367,265]', 'IC50', '< 9.85 µM'),
  ('CC[C@H](C)[C@H](N)C1=N[C@H](C(=O)N[C@@H](CC(C)C)C(=O)N[C@H](CCC(=O)O)C(=O)N[C@H](C(=O)N[C@H]2CCCCNC(=O)[C@H](CC(N)=O)NC(=O)[C@@H](CC(=O)O)NC(=O)[C@H](Cc3cnc[nH]3)NC(=O)[C@@H](Cc3ccccc3)NC(=O)[C@H]([C@@H](C)CC)NC(=O)[C@@H](CCCN)NC2=O)[C@@H](C)CC)CS1 [BACITRACIN]', 'IC50', '37.8 µM');

###

Tested on: Staphylococcus aureus MW2 delta-mecA (mecA-)
PROTOCOL TEXT: IC50 (growth, competition assay)
PARTICULARS: fluorescent label: DsRed; cefoxitin: subinhibitory
ASSAY METRIC: IC50 (µM)

INSERT INTO measurements (compound, assay_system, unit_descriptor, readout_qualifier, quantitative_result) VALUES
  ('O=C(OC[C@H]1O[C@@H](OC(=O)c2cc(O)c(O)c(OC(=O)c3cc(O)c(O)c(O)c3)c2)[C@H](OC(=O)c2cc(O)c(O)c(OC(=O)c3cc(O)c(O)c(O)c3)c2)[C@@H](OC(=O)c2cc(O)c(O)c(OC(=O)c3cc(O)c(O)c(O)c3)c2)[C@@H]1OC(=O)c1cc(O)c(O)c(OC(=O)c2cc(O)c(O)c(O)c2)c1)c1cc(O)c(O)c(OC(=O)c2cc(O)c(O)c(O)c2)c1', 'Staphylococcus aureus MW2 delta-mecA (mecA-)', 'µM', '=', 44),
  ('Cc1cc(-n2c(=O)[nH]c(=O)n(C)c2=O)ccc1Oc1ccc(SC(F)(F)F)cc1 [Toltrazuril]', 'Staphylococcus aureus MW2 delta-mecA (mecA-)', 'µM', '=', 24.3),
  ('CC(C)c1cc2c(c(O)c1O)[C@@]1(C(=O)O)CCCC(C)(C)[C@@H]1CC2', 'Staphylococcus aureus MW2 delta-mecA (mecA-)', 'µM', '<', 9.85),
  ('O=S(=O)(c1ccccc1)N(CC(F)(F)F)c1ccc(C(O)(C(F)(F)F)C(F)(F)F)cc1', 'Staphylococcus aureus MW2 delta-mecA (mecA-)', 'µM', '<', 9.85);

###

Test system: Staphylococcus aureus MW2 (mecA+)
PROTOCOL TEXT: IC50 (growth, competition assay)
PARTICULARS: fluorescent label: DsRed; cefoxitin: subinhibitory
Where a name gives a salt, the structure may show the parent alone.
Mark each entry MET if its IC50 sits below 20 µM, and NOT MET for all others.

INSERT INTO assay_data (compound, class_assignment) VALUES
  ('N=C(N)c1ccc(OCCCCCOc2ccc(C(=N)N)cc2)cc1 [NEBUPENT]', 'MET'),
  ('C[C@H]1COc2c(N3CCN(C)CC3)c(F)cc3c(=O)c(C(=O)O)cn1c23 [Levofloxacin (Levaquin)]', 'MET'),
  ('Cc1cc2c(C(C)C)c(O)c(O)c(C=O)c2c(O)c1-c1c(C)cc2c(C(C)C)c(O)c(O)c(C=O)c2c1O [GOSSYPOL]', 'MET'),
  ('CO[C@@H]1[C@@H](OC(N)=O)[C@@H](O)[C@H](Oc2ccc3c(O)c(NC(=O)c4ccc(O)c(CC=C(C)C)c4)c(=O)oc3c2C)OC1(C)C [ALBAMYCIN]', 'MET'),
  ('CC[C@H]1OC(=O)[C@H](C)[C@@H](O[C@H]2C[C@@](C)(OC)[C@@H](O)[C@H](C)O2)[C@H](C)[C@@H](O[C@@H]2O[C@H](C)C[C@H](N(C)C)[C@H]2O)[C@](C)(O)C[C@@H](C)[C@@H]2N[C@@H](COCCOC)O[C@H]([C@H]2C)[C@]1(C)O [DYNABAC]', 'NOT MET'),
  ('Nc1ccc(/N=N/c2ccccc2)c(N)n1 [PYRIDIUM]', 'NOT MET'),
  ('CNCc1ccc(C)c(NC(=O)c2ccc(Nc3nc(-c4ccccc4)c4ccccc4n3)cc2)c1', 'MET'),
  ('O=C(N[C@@H](Cc1ccccc1)C(=O)CCl)OCc1ccccc1 [Z-L-Phe chloromethyl ketone]', 'MET'),
  ('CCn1cc(C(=O)O)c(=O)c2cc3c(cc21)OCO3 [UTIBID]', 'MET'),
  ('O=C(Nc1ccc([N+](=O)[O-])cc1Cl)c1cc(Cl)ccc1O [Niclosamide]', 'NOT MET'),
  ('CCCCc1oc2ccc(NS(C)(=O)=O)cc2c1C(=O)c1ccc(OCCCN(CCCC)CCCC)cc1 [Dronedarone HCl (Multaq)]', 'MET'),
  ('CC1OC(n2cc(F)c(=O)[nH]c2=O)C(O)C1O (stereo not given) [5-fluoro-5''-deoxyuridine]', 'MET'),
  ('Oc1ccc(Cl)cc1Cc1cc(Cl)ccc1O [DICHLOROPHEN]', 'MET'),
  ('CO/N=C(\C(=O)N[C@@H]1C(=O)N2C(C(=O)O)=C(COC(C)=O)CS[C@H]12)c1csc(N)n1 [CLAFORAN]', 'MET'),
  ('N[C@@H](C(=O)N[C@@H]1C(=O)N2C(C(=O)O)=C(Cl)CS[C@H]12)c1ccccc1 [Cefaclor (Ceclor)]', 'MET');
